We begin with a simple list: items and their reported T½.
Molecular target: T1, Monomeric monkey CD48-mmH (monkey)
T1 construct: Soluble monkey CD48 with a myc-myc-hexa-histidine C-terminal tag; the whole entry is the construct; also called mfCD48-mmH
T1 chain: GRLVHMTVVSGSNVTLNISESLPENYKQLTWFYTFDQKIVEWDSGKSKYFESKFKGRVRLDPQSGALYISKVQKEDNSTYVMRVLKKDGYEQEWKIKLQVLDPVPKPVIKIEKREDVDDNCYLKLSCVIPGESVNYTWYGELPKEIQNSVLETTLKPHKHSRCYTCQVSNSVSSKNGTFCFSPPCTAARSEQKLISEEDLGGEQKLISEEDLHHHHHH
Assay: SPR (Biacore), antibody captured by anti-Fc, CD48 in solution, 25 C
Procedure: Measurements were conducted on a T100-2 BIACORE™ instrument (Biacore Life Sciences division of GE Healthcare, Piscataway, N.J.). […] The soluble CD48 was applied to the flow cell in separate injections at different concentrations, and kinetic association (kₐ) and dissociation (kd) rate constants were determined by fits to the kinetic binding data using Biacore software. […]
Numeric answer only, unit min assumed.

H4H1713N (antibody, V domains shown, Human IgG4 Fc (H4H)) VH: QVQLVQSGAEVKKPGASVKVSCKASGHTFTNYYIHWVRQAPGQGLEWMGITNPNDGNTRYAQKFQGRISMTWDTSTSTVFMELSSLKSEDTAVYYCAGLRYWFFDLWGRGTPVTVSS VL: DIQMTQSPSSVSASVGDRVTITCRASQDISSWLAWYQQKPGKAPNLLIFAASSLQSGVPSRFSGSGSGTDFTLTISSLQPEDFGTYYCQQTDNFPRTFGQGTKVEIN: 44
H4H1772P (antibody, human IgG4, V domains shown, Human IgG4 Fc (H4H)) VH: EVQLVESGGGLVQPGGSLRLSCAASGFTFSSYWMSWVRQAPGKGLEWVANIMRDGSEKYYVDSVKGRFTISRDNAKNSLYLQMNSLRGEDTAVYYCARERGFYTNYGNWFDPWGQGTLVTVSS VL: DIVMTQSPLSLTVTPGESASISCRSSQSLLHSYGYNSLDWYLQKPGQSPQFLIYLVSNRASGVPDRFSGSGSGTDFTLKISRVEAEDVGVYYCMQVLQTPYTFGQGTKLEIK: 23

Then there is this binder:
Exercise: What value of T½ has been reported for the following binder? H4H1781P (antibody, human IgG4, V domains shown, Human IgG4 Fc (H4H)) VH: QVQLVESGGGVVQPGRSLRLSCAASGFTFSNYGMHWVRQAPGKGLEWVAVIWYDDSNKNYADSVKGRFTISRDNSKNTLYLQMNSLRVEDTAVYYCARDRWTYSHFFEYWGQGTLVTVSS VL: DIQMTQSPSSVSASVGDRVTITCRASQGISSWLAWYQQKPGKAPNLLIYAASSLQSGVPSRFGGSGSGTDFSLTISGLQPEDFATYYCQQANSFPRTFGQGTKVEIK
Solution: 148

Source of measurements: patent US20130230533A1
